settings: 328.15 K; 101.33 kPa; Liquid; Concentric cylinders viscometry
OUTCOME_MEASURE: viscosity (mPa·s)
// units = mPa·s; emit number, no label

# input Give its viscosity value. Item: `CCCC[n+]1cccc(C)c1.O=S(=O)([N-]S(=O)(=O)C(F)(F)F)C(F)(F)F`
# output 20.97

# input Give its viscosity value. Item: `CCCC[N+]1(C)CCCCC1.O=S(=O)([N-]S(=O)(=O)C(F)(F)F)C(F)(F)F`
# output 44.55

# input Give its viscosity value. Item: `CC(C)C[N+]1(C)CCCCC1.O=S(=O)([N-]S(=O)(=O)C(F)(F)F)C(F)(F)F`
# output 40.71

# input Give its viscosity value. Item: `CC(C)C[N+]1(C)CCCC1.O=S(=O)([N-]S(=O)(=O)C(F)(F)F)C(F)(F)F`
# output 22.52

# input Give its viscosity value. Item: `Cc1ccc[n+](CC(C)C)c1.O=S(=O)([N-]S(=O)(=O)C(F)(F)F)C(F)(F)F`
# output 26.4

# input Give its viscosity value. Item: `CC(C)Cn1cc[n+](C)c1.O=S(=O)([N-]S(=O)(=O)C(F)(F)F)C(F)(F)F`
# output 23.46

# input Give its viscosity value. Item: `CCCC[N+]1(C)CCCC1.O=S(=O)([N-]S(=O)(=O)C(F)(F)F)C(F)(F)F`
# output 25.66
